- Test name: Aqueous solubility of the compound at pH 7.0 by HPLC analysis
- Format: physicochemical
- Experimental setup: buffer
The molecules listed here are annotated with their solubility.
Form entry: value (µg/mL) — number only.

Cpd smiles	solubility (µg/mL)
Cc1cc(/C=C/C#N)cc(C)c1Oc1nc(NC2CCN(c3ccc(NS(C)(=O)=O)cc3)CC2)nc2c1COC2	10.1

Now, please, on to the next molecule.
Input: Need solubility, item Cc1cc(/C=C/C#N)cc(C)c1Oc1nc(NC2CCN(Cc3ccc(C(N)=O)cc3)CC2)nc2c1COC2
Output: 25.4

* * *

EC50 by entry:
- System: Human immunodeficiency virus 1
- Test name: Antiviral activity against HIV-1 harboring reverse transcriptase F227L/V106A mutant infected in human MT4 cells assessed as protection against virus-induced cytopathic effect incubated for 5 days by MTT assay
- Experimental setup: Human immunodeficiency virus 1, MT4, 120 h
Write it as a number; the unit nM goes unstated.

Cpd smiles	EC50 (nM)
Cc1cc(/C=C/C#N)cc(C)c1Oc1nc(NC2CCN(Cc3ccc(S(C)(=O)=O)cc3)CC2)nc2c1COC2	16.3
Cc1cc(C#N)cc(C)c1Oc1nc(Nc2ccc(C#N)cc2)nc(N)c1Br	21.4

Below: the item to evaluate.
Input: // lookup EC50 for Cc1cc(/C=C/C#N)cc(C)c1Oc1nc(NC2CCN(Cc3ccc(C(F)(F)F)cc3)CC2)nc2c1COC2
Output: 199

Recorded values, source ChEMBL document CHEMBL5038655.
